Listed here: items and their measured viability, T/C.
# Test system: OVCAR-8 complex spheroid, growth inhibition
# assay: Anticancer human tumor OVCAR-8 cell line growth inhibition [Asc];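 also: spheroids exposed to agents for 7 days before readout; percent viability relative to DMSO vehicle wells taken as 100%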
# conditionDetails: second compound 0.03 µM; first compound 0.01 µM; active compounds read low
# Text: Multicellular complex tumor spheroid response to apoptosis pathway targeting inhibitors Alrizomadlin, Pelcitoclax, and Dasminapant in combination with a variety of drugs and investigational agents in selected tumor cell lines […] Compounds. […] If the clinical Cmax for an agent had not been determined, the highest concentration tested was 10 microM. […]
Entry rule: numbers only, all in %.

Consider the reported viability, T/C for these molecules:
Cn1ncnc1[C@H]1c2n[nH]c(=O)c3cc(F)cc(c23)N[C@@H]1c1ccc(F)cc1 + CCN1C(C(=O)NC23CCC(C(=O)O)(CC2)CC3)C(c2cccc(Cl)c2F)C2(C(=O)Nc3cc(Cl)ccc32)C12CCCCC2 ... 109
CCN1CCN(Cc2ccc(Nc3ncc(F)c(-c4cc(F)c5nc(C)n(C(C)C)c5c4)n3)nc2)CC1 + CCN1C(C(=O)NC23CCC(C(=O)O)(CC2)CC3)C(c2cccc(Cl)c2F)C2(C(=O)Nc3cc(Cl)ccc32)C12CCCCC2 ... 84.4
COc1c(OCCCN2CCOCC2)ccc2c3n(c(=NC(=O)c4cnc(N)nc4)nc12)CCN3 + CCN1C(C(=O)NC23CCC(C(=O)O)(CC2)CC3)C(c2cccc(Cl)c2F)C2(C(=O)Nc3cc(Cl)ccc32)C12CCCCC2 ... 101
NC1CCC(NC2CC2c2ccccc2)CC1 (stereo unspecified) + CCN1C(C(=O)NC23CCC(C(=O)O)(CC2)CC3)C(c2cccc(Cl)c2F)C2(C(=O)Nc3cc(Cl)ccc32)C12CCCCC2 ... 93.8
CNC(C)C(=O)NC1CN(S(=O)(=O)c2cccc(S(=O)(=O)N3CCC4CCC(C(=O)NC(c5ccccc5)c5ccccc5)N4C(=O)C(NC(=O)C(C)NC)C3)c2)CCC2CCC(C(=O)NC(c3ccccc3)c3ccccc3)N2C1=O (stereo unspecified) + CCN1C(C(=O)NC23CCC(C(=O)O)(CC2)CC3)C(c2cccc(Cl)c2F)C2(C(=O)Nc3cc(Cl)ccc32)C12CCCCC2 ... 99.3

# context switch: different molecule, same viability, T/C
Inquiry: In one line, give reported viability, T/C of the entry O=C(c1ccc(F)c(F)c1Nc1ccc(I)cc1F)N1CC(O)([C@@H]2CCCCN2)C1 + CCN1C(C(=O)NC23CCC(C(=O)O)(CC2)CC3)C(c2cccc(Cl)c2F)C2(C(=O)Nc3cc(Cl)ccc32)C12CCCCC2 .
Reply text: 108

###

Entries and their viability, T/C
# Tested on: OVCAR-8 complex spheroid, growth inhibition
# assay: Anticancer human tumor OVCAR-8 cell line growth inhibition [Asc];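 also: spheroids exposed to agents for 7 days before readout; percent viability relative to DMSO vehicle wells taken as 100%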
# conditionDetails: second compound 0.03 µM; first compound 10 µM; active compounds read low
The response must be a number in % with no trailing unit.

Worked cases, viability, T/C given:
C=CC(=O)N1CCN(c2nc(=O)n(-c3c(C)ccnc3C(C)C)c3nc(-c4c(O)cccc4F)c(F)cc23)C(C)C1 (centres undefined) + CCN1C(C(=O)NC23CCC(C(=O)O)(CC2)CC3)C(c2cccc(Cl)c2F)C2(C(=O)Nc3cc(Cl)ccc32)C12CCCCC2 ... 102
C=C(F)C(=O)N1CCN(c2nc(OCC3CCCN3C)nc3c2CCN(c2cccc4cccc(Cl)c24)C3)CC1CC#N (centres undefined) + CCN1C(C(=O)NC23CCC(C(=O)O)(CC2)CC3)C(c2cccc(Cl)c2F)C2(C(=O)Nc3cc(Cl)ccc32)C12CCCCC2 ... 0.56
C#Cc1c(F)ccc2cc(O)cc(-c3ncc4c(N5CC6CCC(C5)N6)nc(OCC56CCCN5CC(F)C6)nc4c3F)c12 (centres undefined) + CCN1C(C(=O)NC23CCC(C(=O)O)(CC2)CC3)C(c2cccc(Cl)c2F)C2(C(=O)Nc3cc(Cl)ccc32)C12CCCCC2 ... 91.5

Inquiry: Return reported viability, T/C. Input compound: O=C(c1cc(Cc2n[nH]c(=O)c3ccccc23)ccc1F)N1CCN(C(=O)C2CC2)CC1 + CCN1C(C(=O)NC23CCC(C(=O)O)(CC2)CC3)C(c2cccc(Cl)c2F)C2(C(=O)Nc3cc(Cl)ccc32)C12CCCCC2
Reply text: 102

These entries and their values trace back to PubChem BioAssay AID1963437.
